Consider the following compounds and their measured inhibition at 100 µM readings.
Target or system: receptor binding domain (HC fragment) of BoNT/A binding to the fourth luminal domain of SV2C (Clostridium botulinum, UniProt P0DPI0)
Sequence (P0DPI0 872-1296 limits assumed): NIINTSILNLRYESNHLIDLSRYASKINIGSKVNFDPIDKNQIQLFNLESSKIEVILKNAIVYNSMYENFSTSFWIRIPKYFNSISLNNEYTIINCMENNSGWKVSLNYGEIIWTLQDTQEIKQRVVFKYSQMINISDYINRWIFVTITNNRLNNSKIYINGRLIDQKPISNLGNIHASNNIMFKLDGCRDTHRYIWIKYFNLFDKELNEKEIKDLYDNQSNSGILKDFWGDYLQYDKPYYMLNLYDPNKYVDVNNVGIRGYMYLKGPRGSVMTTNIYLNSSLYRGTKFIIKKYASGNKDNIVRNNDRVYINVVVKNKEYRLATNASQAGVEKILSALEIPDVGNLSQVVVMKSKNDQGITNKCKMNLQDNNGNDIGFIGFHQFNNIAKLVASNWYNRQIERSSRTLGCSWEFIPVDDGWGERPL
Assay overview: biochemical
Design: species or system Mus musculus
Particulars: read-out: Maximal Inhibition (%)
Structures can show the parent of a compound that is named as a salt.

Some solved entries appear below for comparison.
Compound | inhibition at 100 µM
C=CC1=C(C)c2cc3[nH]c(cc4nc(cc5[nH]c(cc1n2)c(C)c5CCC(=O)O)C(CCC(=O)O)=C4C)c(C)c3C=C [PPIX, Protoporphyrin IX disodium] | ~80%
NCCOc1cc(C(=O)Nc2cc(OCCN)c3ccccc3n2)nc(C(=O)Nc2cc(OCCN)c3ccccc3n2)c1 [Pyridostatin trifluoroacetate salt] | ~80%
CC(=O)OCC1=C(C(=O)O)N2C(=O)[C@@H](NC(=O)CCC[C@@H](N)C(=O)O)[C@H]2SC1 [Cephalosporin C zinc salt] | ~90%

Could you now consider this next compound?
Indicate the recorded inhibition at 100 µM value for this compound: CO/N=C(\C(=O)N[C@@H]1C(=O)N2C(C(=O)O)=C(COC(C)=O)CS[C@H]12)c1csc(N)n1 [Cefotaxime sodium]
~90%
